Read-out: Vascular cell adhesion molecule 1 (VCAM1), VCAM1 (gene 7412)
Procedure text: BSK_4H_VCAM1: BioMAP Diversity Plus: 4H Assay for Vascular cell adhesion molecule 1 (VCAM1) Biomarker Activity (AID 2283033)
Measurement context: primary human endothelial cells (HUVEC); actives raise or lower the signal
Calls of active or inactive are those of the source. How the source made its calls: active means hit-call score of the fitted dose curve at least 0.9, where 1 is the maximum; inactive means score below 0.9.
Labels: active, inactive

# Molecule, Category label
data = [
    ("CCC(=O)Nc1ccc(Cl)c(Cl)c1", "inactive"),
    ("CCCCN(CC)c1c([N+](=O)[O-])cc(C(F)(F)F)cc1[N+](=O)[O-]", "active"),
    ("CCOC(=O)CC(SP(=O)(OC)OC)C(=O)OCC (stereo not drawn)", "inactive"),
    ("CC[C@H](C)[C@H]1O[C@]2(C=C[C@@H]1C)C[C@@H]1C[C@@H](C/C=C(\\C)[C@@H](O[C@H]3C[C@H](OC)[C@@H](O[C@H]4C[C@H](OC)[C@@H](NC)[C@H](C)O4)[C@H](C)O3)[C@@H](C)/C=C/C=C3\\CO[C@@H]4[C@H](O)C(C)=C[C@@H](C(=O)O1)[C@]34O)O2", "active"),
    ("C#CC(C)(C)NC(=O)c1cc(Cl)cc(Cl)c1", "inactive"),
    ("CCOP(=S)(Oc1cnc(C(C)(C)C)nc1)OC(C)C (stereo not drawn)", "active"),
    ("CCOP(=S)(OCC)Oc1ccc([N+](=O)[O-])cc1", "inactive"),
    ("CC(Oc1cccc(Cl)c1)C(=O)O (stereo not drawn)", "inactive"),
    ("CNc1cnn(-c2cccc(C(F)(F)F)c2)c(=O)c1Cl", "inactive"),
    ("Cc1nn(-c2cc(NS(C)(=O)=O)c(Cl)cc2Cl)c(=O)n1C(F)F", "inactive"),
    ("CCCOc1nn(C(=O)NS(=O)(=O)c2ccccc2C(=O)OC)c(=O)n1C", "inactive"),
    ("CCC(=NOC/C=C/Cl)C1=C(O)CC(C2CCOCC2)CC1=O (stereo not drawn)", "inactive"),
    ("COP(=O)(OC)OC(Br)C(Cl)(Cl)Br (stereo not drawn)", "active"),
]

----------
Procedure text: CCTE_Mundy_HCI_hNP1_Casp3_7: CCTE's Caspase-Glo 3/7 Assay in human neuroprogenitor cells for Apoptosis, Mundy Lab (AID 2284240)
The source made the active and inactive calls. The calls were made as follows: active = hit-call score of the fitted dose curve at least 0.9, where 1 is the maximum; inactive = score below 0.9.
Readout kind: outcome

# Compound, Reported
rows = [
    ("CCOP(=O)(SC(C)CC)N1CCSC1=O (stereo not drawn)", "inactive"),
    ("CC1=NNC(=O)N(/N=C/c2cccnc2)C1", "inactive"),
    ("CCOP(=S)(OCC)SCCSCC", "inactive"),
]

----------
Procedure text: Tanguay_ZF_120hpf_TR_legacy: (Legacy) Oregon State University Tanguay Lab 120 Hour Post-fertilization zebrafish Assay for Touch Response (AID 2283667)
Records with an inconclusive call do not appear. The source made the active and inactive calls. The calls were made as follows: active = hit-call score of the fitted dose curve at least 0.9, where 1 is the maximum; inconclusive = response in the unintended direction; inactive = score below 0.9.
Readout kind: outcome

# Molecule, Reported
measured = [
    ("CCOP(=O)(NC(C)C)Oc1ccc(SC)c(C)c1 (stereo not drawn)", "inactive"),
    ("CSC1=N[C@@](C)(c2ccccc2)C(=O)N1Nc1ccccc1", "inactive"),
    ("Cc1nn(-c2cc(NS(C)(=O)=O)c(Cl)cc2Cl)c(=O)n1C(F)F", "inactive"),
]

----------
Procedure text: ATG_PPRE_CIS: Attagene CIS-FACTORIAL HepG2 Assay for human Peroxisome Proliferator-activated Response Element (PPRE) (AID 2282958)
Measurement context: HepG2 PPRE cis-element reporter, Attagene transcription factor profiling; actives raise or lower the signal
Active and inactive are the calls of the source. The calls were made as follows: active = hit-call score of the fitted dose curve at least 0.9, where 1 is the maximum; inactive = score below 0.9.
Outcome codes: active, inactive

# Query smiles, Category label
rows = [
    ("CCCCSP(=O)(SCCCC)SCCCC", "active"),
    ("CSC1=N[C@@](C)(c2ccccc2)C(=O)N1Nc1ccccc1", "active"),
    ("N#CSCSC#N", "inactive"),
    ("Cc1nn(-c2cc(NS(C)(=O)=O)c(Cl)cc2Cl)c(=O)n1C(F)F", "inactive"),
    ("Cc1ccn2nc(S(=O)(=O)Nc3c(F)cccc3F)nc2n1", "inactive"),
    ("CNC(=O)Oc1cccc2c1OC(C)(C)O2", "active"),
    ("CCOP(=S)(OCC)SCCSCC", "inactive"),
]

----------
Read-out: Vascular cell adhesion molecule 1 (VCAM1), VCAM1 (gene 7412)
Procedure text: BSK_CASM3C_VCAM1: BioMAP Diversity Plus: CASM3C Assay for Vascular cell adhesion molecule 1 (VCAM1) Biomarker Activity (AID 2283055);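 further: VCAM-1 protein level quantified by ELISA on the cells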
Measurement context: primary human coronary artery smooth muscle cells; actives raise or lower the signal
The source made the active and inactive calls. Rule for the calls: active = hit-call score of the fitted dose curve at least 0.9, where 1 is the maximum; inactive = score below 0.9.
Possible outcomes: active, inactive

# Compound, Category label
records = [
    ("FC(F)C(F)(F)OCC(Cn1cncn1)c1ccc(Cl)cc1Cl (stereo unspecified)", "inactive"),
    ("Cc1ccn2nc(S(=O)(=O)Nc3c(F)cccc3F)nc2n1", "inactive"),
    ("CNC(=O)ON=C(SC)C(=O)N(C)C", "inactive"),
    ("COc1cc(OC)nc(Sc2cccc(Cl)c2C(=O)O)n1", "inactive"),
    ("CCC(=NOC/C=C/Cl)C1=C(O)CC(C2CCOCC2)CC1=O (stereo unspecified)", "inactive"),
    ("Nc1nc(N)nc(NC2CC2)n1", "inactive"),
    ("CCOP(=S)(OCC)OC(Cl)C(Cl)(Cl)Cl (stereo unspecified)", "inactive"),
    ("C#CC(C)(C)NC(=O)c1cc(Cl)cc(Cl)c1", "inactive"),
    ("CSC1=N[C@@](C)(c2ccccc2)C(=O)N1Nc1ccccc1", "inactive"),
    ("CCCSP(=O)(OCC)Oc1ccc(Br)cc1Cl (stereo unspecified)", "inactive"),
    ("CN(C)NC(=O)CCC(=O)O", "inactive"),
    ("CCc1cccc(C)c1N(C(=O)CCl)C(C)COC (stereo unspecified)", "inactive"),
    ("CCCCN(CC)c1c([N+](=O)[O-])cc(C(F)(F)F)cc1[N+](=O)[O-]", "inactive"),
    ("N#CSCSC#N", "active"),
    ("CCC(CC)Nc1c([N+](=O)[O-])cc(C)c(C)c1[N+](=O)[O-]", "inactive"),
    ("CN(C)C(=O)Nc1cccc(C(F)(F)F)c1", "inactive"),
    ("C#CCC1=C(C)C(OC(=O)C2C(C=C(C)C)C2(C)C)CC1=O (stereo unspecified)", "inactive"),
    ("CC(C)[C@H](C(=O)O[C@H](C#N)c1cccc(Oc2ccccc2)c1)c1ccc(Cl)cc1", "inactive"),
    ("CCOP(=S)(OCC)Oc1ccc2c(C)c(Cl)c(=O)oc2c1", "inactive"),
    ("CCOP(=O)(NC(C)C)Oc1ccc(SC)c(C)c1 (stereo unspecified)", "inactive"),
    ("CSc1nnc(C(C)(C)C)c(=O)n1N", "inactive"),
]

----------
Read-out: Alpha-fetoprotein (AFP) gene, AFP (gene 174)
Procedure text: LTEA_HepaRG_AFP: Life Technologies and Expression Analysis (LTEA) Assay for Alpha-fetoprotein (AFP) gene using HepaRG (AID 2283472)
Measurement context: mRNA level, 48 h; actives raise or lower the signal
Active and inactive are the calls of the source. Rule for the calls: active = hit-call score of the fitted dose curve at least 0.9, where 1 is the maximum; inactive = score below 0.9.
Labels: active, inactive

# Compound, Category label
records = [
    ("CN1COCN(Cc2cnc(Cl)s2)C1=N[N+](=O)[O-]", "inactive"),
    ("CCOP(=O)(NC(C)C)Oc1ccc(SC)c(C)c1 (stereo not drawn)", "active"),
    ("Cc1ccn2nc(S(=O)(=O)Nc3c(F)cccc3F)nc2n1", "inactive"),
    ("CCOP(=S)(OCC)OC(Cl)C(Cl)(Cl)Cl (stereo not drawn)", "inactive"),
    ("CCOP(=S)(OCC)Oc1cc(C)nc(C(C)C)n1", "inactive"),
    ("CCCCN(CC)c1c([N+](=O)[O-])cc(C(F)(F)F)cc1[N+](=O)[O-]", "inactive"),
    ("CC1(C(=O)Nc2ccc(O)c(Cl)c2Cl)CCCCC1", "inactive"),
    ("COP(=O)(OC)OC(Br)C(Cl)(Cl)Br (stereo not drawn)", "inactive"),
    ("O=C(O)c1cc(Oc2ccc(C(F)(F)F)cc2Cl)ccc1[N+](=O)[O-]", "inactive"),
    ("CCOC(=O)COc1cc(-c2nn(C)c(OC(F)F)c2Cl)c(F)cc1Cl", "inactive"),
    ("CCC(CC)Nc1c([N+](=O)[O-])cc(C)c(C)c1[N+](=O)[O-]", "active"),
    ("CCCSP(=O)(OCC)SCCC", "inactive"),
    ("CC(C1CC1)C(O)(Cn1cncn1)c1ccc(Cl)cc1 (stereo not drawn)", "active"),
    ("CCOP(=S)(Oc1cnc(C(C)(C)C)nc1)OC(C)C (stereo not drawn)", "active"),
    ("CC[C@H](C)[C@H]1O[C@]2(C=C[C@@H]1C)C[C@@H]1C[C@@H](C/C=C(\\C)[C@@H](O[C@H]3C[C@H](OC)[C@@H](O[C@H]4C[C@H](OC)[C@@H](NC)[C@H](C)O4)[C@H](C)O3)[C@@H](C)/C=C/C=C3\\CO[C@@H]4[C@H](O)C(C)=C[C@@H](C(=O)O1)[C@]34O)O2", "active"),
    ("C[Si](Cn1cncn1)(c1ccc(F)cc1)c1ccc(F)cc1", "active"),
    ("CCOC(=O)CC(SP(=O)(OC)OC)C(=O)OCC (stereo not drawn)", "inactive"),
    ("Cc1cc(C2CC2)nc(Nc2ccccc2)n1", "inactive"),
]
